This collection of values is drawn from the supplement of paper PMC9112550.

System: Escherichia coli TOP10;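 further: peptides expressed intracellularly from a pBAD plasmid library in pooled LB shake-flask culture, induced with 0.3% L-arabinose, DNA abundance read by NGS, three biological replicates, DESeq2 with apeglm shrinkage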
Assay: shrunken log2 fold change of peptide-encoding DNA abundance (4.5 h post-induction vs induction); higher = less antimicrobial activity (less host growth inhibition)
Conditions: time post-induction: 4.5 h; library: site-saturation at positions 5, 18, 19, 20
Label Satisfied when shrunken log2 fold change is at or above -0.05; anything below gets Not satisfied.

[[record]]
sequence_code = "RRIRCRPPRLPRPRPRPKQIPRP"
group_label = "Satisfied"

[[record]]
sequence_code = "RRIRTRPPRLPRPRPRPGTNPRP"
group_label = "Not satisfied"

[[record]]
sequence_code = "RRIRLRPPRLPRPRPRPGHIPRP"
group_label = "Not satisfied"

[[record]]
sequence_code = "RRIRPRPPRLPRPRPRPWMHPRP"
group_label = "Satisfied"

[[record]]
sequence_code = "RRIRERPPRLPRPRPRPRCLPRP"
group_label = "Satisfied"

[[record]]
sequence_code = "RRIRKRPPRLPRPRPRPYYYPRP"
group_label = "Not satisfied"

[[record]]
sequence_code = "RRIRKRPPRLPRPRPRPVNTPRP"
group_label = "Not satisfied"

[[record]]
sequence_code = "RRIRIRPPRLPRPRPRPSSQPRP"
group_label = "Not satisfied"

[[record]]
sequence_code = "RRIRYRPPRLPRPRPRPHQQPRP"
group_label = "Satisfied"

[[record]]
sequence_code = "RRIRERPPRLPRPRPRPAQQPRP"
group_label = "Not satisfied"

[[record]]
sequence_code = "RRIRFRPPRLPRPRPRPNSDPRP"
group_label = "Not satisfied"

[[record]]
sequence_code = "RRIRARPPRLPRPRPRPCVMPRP"
group_label = "Not satisfied"

[[record]]
sequence_code = "RRIRFRPPRLPRPRPRPAMIPRP"
group_label = "Not satisfied"

[[record]]
sequence_code = "RRIRFRPPRLPRPRPRPYKLPRP"
group_label = "Not satisfied"

[[record]]
sequence_code = "RRIRTRPPRLPRPRPRPECGPRP"
group_label = "Satisfied"

[[record]]
sequence_code = "RRIRCRPPRLPRPRPRPTKFPRP"
group_label = "Not satisfied"

[[record]]
sequence_code = "RRIRNRPPRLPRPRPRPSHEPRP"
group_label = "Satisfied"

[[record]]
sequence_code = "RRIRFRPPRLPRPRPRPPGDPRP"
group_label = "Satisfied"

[[record]]
sequence_code = "RRIRNRPPRLPRPRPRPPTHPRP"
group_label = "Satisfied"

[[record]]
sequence_code = "RRIRERPPRLPRPRPRPIKGPRP"
group_label = "Satisfied"

[[record]]
sequence_code = "RRIRERPPRLPRPRPRPQNCPRP"
group_label = "Not satisfied"

[[record]]
sequence_code = "RRIRARPPRLPRPRPRPVLGPRP"
group_label = "Satisfied"

[[record]]
sequence_code = "RRIRSRPPRLPRPRPRPGPRPRP"
group_label = "Satisfied"

[[record]]
sequence_code = "RRIRLRPPRLPRPRPRPIDKPRP"
group_label = "Not satisfied"

[[record]]
sequence_code = "RRIRARPPRLPRPRPRPCMEPRP"
group_label = "Satisfied"

[[record]]
sequence_code = "RRIRQRPPRLPRPRPRPDWEPRP"
group_label = "Satisfied"

[[record]]
sequence_code = "RRIRGRPPRLPRPRPRPKVYPRP"
group_label = "Not satisfied"

[[record]]
sequence_code = "RRIRYRPPRLPRPRPRPIFQPRP"
group_label = "Not satisfied"

